read-out: xenobiotic metabolism (CYP1A2), CYP1A2 (gene 1544); test: CLD_CYP1A2_6hr: CellzDirect (CLD) Gene Expression Assay for xenobiotic metabolism (CYP1A2) at 6 hours (AID 2283663)
Records with an inconclusive call do not appear. The source made the active and inactive calls. The calls were made as follows: active = hit-call score of the fitted dose curve at least 0.9, where 1 is the maximum; inconclusive = response in the unintended direction; inactive = score below 0.9.
The reply should be one of these categories: active, inactive

Consider the following illustrative entries.
CCCOCC(=Nc1ccc(Cl)cc1C(F)(F)F)n1ccnc1; active
CC(C1CC1)C(O)(Cn1cncn1)c1ccc(Cl)cc1 (centres undefined); active
Cc1cc(C2CC2)nc(Nc2ccccc2)n1; active

What was the test verdict on C#CCC1=C(C)C(OC(=O)C2C(C=C(C)C)C2(C)C)CC1=O (centres undefined) ?
inactive

Now consider `COc1cccc(C(=O)NN(C(=O)c2cc(C)cc(C)c2)C(C)(C)C)c1C` .
inactive

Now consider FC(F)C(F)(F)OCC(Cn1cncn1)c1ccc(Cl)cc1Cl (centres undefined) .
active

Now consider `CCCCN(CC)c1c([N+](=O)[O-])cc(C(F)(F)F)cc1[N+](=O)[O-]` .
inactive

Now consider `C[N+]1(C)CCCCC1` .
inactive

Now consider CCC(=NOC/C=C/Cl)C1=C(O)CC(C2CCOCC2)CC1=O (centres undefined) .
inactive
